Hello, the source for this data is patent US20100158926A1, in case you need it.

Recorded Kd by entry
Biological target: human ErbB2 ECD-myc/His fusion protein (human)
Experiment: SPR, medium resolution Biacore 2000; mAb captured on goat anti-human IgG, ErbB2(ECD)-cMyc/His injected; 1:1 fit
I only need the number, in nM, no unit after it.

monoclonal antibody 1.96 (antibody, V domains shown) VH: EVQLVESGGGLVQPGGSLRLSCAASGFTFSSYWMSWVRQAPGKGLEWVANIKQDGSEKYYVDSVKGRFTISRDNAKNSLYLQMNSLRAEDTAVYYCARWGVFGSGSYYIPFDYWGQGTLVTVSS VL: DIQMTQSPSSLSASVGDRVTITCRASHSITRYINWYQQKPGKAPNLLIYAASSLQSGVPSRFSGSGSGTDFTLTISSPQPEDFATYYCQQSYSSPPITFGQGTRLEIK : 2.6
monoclonal antibody 1.18.1 (antibody, V domains shown) VH: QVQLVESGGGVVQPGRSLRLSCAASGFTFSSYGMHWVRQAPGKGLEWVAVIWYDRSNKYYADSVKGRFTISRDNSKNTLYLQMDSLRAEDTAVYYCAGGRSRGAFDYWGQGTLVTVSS VL: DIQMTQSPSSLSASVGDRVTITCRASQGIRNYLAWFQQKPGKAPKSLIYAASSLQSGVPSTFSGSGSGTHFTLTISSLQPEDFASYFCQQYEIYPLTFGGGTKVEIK : 3

Could you now consider this next binder?
Q: Query (binder): monoclonal antibody 1.14.1 (antibody, V domains shown) VH: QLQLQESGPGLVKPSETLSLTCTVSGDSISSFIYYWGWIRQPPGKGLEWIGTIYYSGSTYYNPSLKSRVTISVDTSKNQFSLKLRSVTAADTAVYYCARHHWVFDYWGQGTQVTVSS VL: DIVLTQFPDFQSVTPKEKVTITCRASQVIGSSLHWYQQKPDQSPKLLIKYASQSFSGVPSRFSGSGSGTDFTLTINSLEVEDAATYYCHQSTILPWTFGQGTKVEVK ; field requested: Kd
Ans: 2.5
